- experiment: Solvation interaction parameters by inverse gas-liquid chromatography (Abraham model)
- Assay type: physicochemical
- particulars: 40° C.
- Method: The preparation of the capillary columns for inverse gas-liquid chromatographic analysis was performed using a previously described procedure. All capillary columns had efficiencies between 2100 to 2500 plates/meter. […] Previously we characterized a large number of room temperature ionic liquids in terms of multiple solvation interactions using the solvation parameter model, shown in equation log k=c+rR2+sπ2^H+aα2^H+bβ2^H+l log L^16 [3] […] The retention factor is determined chromatographically. […]
Measured Interaction parameter r (interaction via nonbonding and π-electrons) by item
measuredParameter: Interaction parameter r (interaction via nonbonding and π-electrons)

# compound, assayResult
data = [
    ("O=S(=O)([N-]S(=O)(=O)C(F)(F)F)C(F)(F)F.O=S(=O)([N-]S(=O)(=O)C(F)(F)F)C(F)(F)F.c1ccc(Cn2cc[n+](CCCCCCCCCCCC[n+]3ccn(Cc4ccccc4)c3)c2)cc1 [C12(benzim)2-NTf2]", 0.11),
    ("C[N+]1(CCCCCCCCC[N+]2(C)CCCC2)CCCC1.O=S(=O)([N-]S(=O)(=O)C(F)(F)F)C(F)(F)F.O=S(=O)([N-]S(=O)(=O)C(F)(F)F)C(F)(F)F [C9(mpy)2-NTf2]", 0.27),
    ("CCCCn1cc[n+](C)c1.O=S(=O)([N-]S(=O)(=O)C(F)(F)F)C(F)(F)F [BMIM-NTf2, reference compound]", 0),
    ("Cn1cc[n+](CCCCCCCCC[n+]2ccn(C)c2)c1.O=S(=O)([N-]S(=O)(=O)C(F)(F)F)C(F)(F)F.O=S(=O)([N-]S(=O)(=O)C(F)(F)F)C(F)(F)F [C9(mim)2-NTf2]", 0.16),
    ("C[n+]1ccn(CCCCn2cc[n+](C)c2)c1.O=S(=O)([N-]S(=O)(=O)C(F)(F)F)C(F)(F)F.O=S(=O)([N-]S(=O)(=O)C(F)(F)F)C(F)(F)F [C4(mim)2-NTf2]", 0.25),
]

Source of measurements: patent US8734673B2
